Ref: PubChem BioAssay AID328

tested on: BDF1 mice, P388 leukemia ip, median survival T/C; assay: NCI In Vivo Anticancer Drug Screen. Data for tumor model P388 Leukemia (intraperitoneal) in B6D2F1 (BDF1) mice; conditions: endpoint: median survival time; dose: 150.0 mg/kg/injection; schedule: Q01DX009 (ip); vehicle: saline
Toxic doses and inconclusive results are not listed. The calls were made as follows: active = survival T/C of 150% or more; inactive = T/C below 125% in these data.
Classes used: YES for active, NO for inactive

1) CN1CCN(Cc2nc3cccc4c3c([n+]2[O-])-c2ccccc2-4)CC1    YES
2) Cc1cc(NC(=O)NCc2ccc(N)cc2)ccc1S(=O)(=O)F    NO
3) CS(=O)(=O)OCCC#N    NO
4) O=C(O)C1OC1C(=O)O (centres undefined)    NO
